Assay: Multi-component pharmacokinetic study of GQD, GQD-GC and single herb extracts in rats (plasma, LC/MS/MS)
Format: in vivo, Sprague-Dawley rats
Conditions: rats, oral
assay metric: bioavailability in the GQD group compared with the Ge-Gen group

Past entries and their recorded results:
>>> reported_result("COc1ccc(-c2coc3cc(O[C@@H]4O[C@H](CO)[C@@H](O)[C@H](O)[C@H]4O)ccc3c2=O)cc1 [Compound 39, ononin]")
"higher"
>>> reported_result("O=c1c(-c2ccc(O)cc2)coc2c([C@@H]3O[C@H](CO)[C@@H](O)[C@H](O)[C@H]3O)c(O)ccc12 [Compound 7, puerarin]")
"higher"
>>> reported_result("COc1ccc(-c2coc3c(C4OC(COC5OCC(O)(CO)C5O)C(O)C(O)C4O)c(O)ccc3c2=O)cc1 (centres unmarked) [Compound 5]")
"higher"
>>> reported_result("O=c1c(-c2ccc(O)cc2)coc2cc(O[C@@H]3O[C@H](CO)[C@@H](O)[C@H](O)[C@H]3O)ccc12 [Compound 1, Daidzin]")
"higher"

# input for lookup
Qu. Any idea what bioavailability in the GQD group compared with the Ge-Gen group was measured for O=c1c(-c2ccc(O)cc2)coc2cc(O[C@@H]3O[C@H](CO)[C@@H](O)[C@H](O)[C@H]3O)cc(O)c12 [Compound 4, genistin] ?
Ans. higher
